# measurementConditions: 298.15 K; 101.3 kPa; Liquid; Vibrating tube method
Numbers after ± are expanded uncertainties.
measuredEndpoint: mass density

Query :: Endpoint output: mass density of CCOC(=O)OCC [diethyl carbonate] . Value?
Result :: 969.3 ± 2.4 kg/m3

Query :: Endpoint output: mass density of `CCCCn1cc[n+](C)c1C.O=S(=O)([N-]S(=O)(=O)C(F)(F)F)C(F)(F)F` . Value?
Result :: 1418.5 ± 2.5 kg/m3

Query :: Endpoint output: mass density of `CCn1cc[n+](C)c1C.O=S(=O)([N-]S(=O)(=O)C(F)(F)F)C(F)(F)F` . Value?
Result :: 1491 ± 2.5 kg/m3

Query :: Endpoint output: mass density of COC(=O)OC [dimethyl carbonate] . Value?
Result :: 1063.1 ± 2.4 kg/m3
